Task for the reader: assign each of the following compounds its reported Ki.
# measured on: glucocorticoid receptor (Homo sapiens)
# Sequence (P04150 1-777): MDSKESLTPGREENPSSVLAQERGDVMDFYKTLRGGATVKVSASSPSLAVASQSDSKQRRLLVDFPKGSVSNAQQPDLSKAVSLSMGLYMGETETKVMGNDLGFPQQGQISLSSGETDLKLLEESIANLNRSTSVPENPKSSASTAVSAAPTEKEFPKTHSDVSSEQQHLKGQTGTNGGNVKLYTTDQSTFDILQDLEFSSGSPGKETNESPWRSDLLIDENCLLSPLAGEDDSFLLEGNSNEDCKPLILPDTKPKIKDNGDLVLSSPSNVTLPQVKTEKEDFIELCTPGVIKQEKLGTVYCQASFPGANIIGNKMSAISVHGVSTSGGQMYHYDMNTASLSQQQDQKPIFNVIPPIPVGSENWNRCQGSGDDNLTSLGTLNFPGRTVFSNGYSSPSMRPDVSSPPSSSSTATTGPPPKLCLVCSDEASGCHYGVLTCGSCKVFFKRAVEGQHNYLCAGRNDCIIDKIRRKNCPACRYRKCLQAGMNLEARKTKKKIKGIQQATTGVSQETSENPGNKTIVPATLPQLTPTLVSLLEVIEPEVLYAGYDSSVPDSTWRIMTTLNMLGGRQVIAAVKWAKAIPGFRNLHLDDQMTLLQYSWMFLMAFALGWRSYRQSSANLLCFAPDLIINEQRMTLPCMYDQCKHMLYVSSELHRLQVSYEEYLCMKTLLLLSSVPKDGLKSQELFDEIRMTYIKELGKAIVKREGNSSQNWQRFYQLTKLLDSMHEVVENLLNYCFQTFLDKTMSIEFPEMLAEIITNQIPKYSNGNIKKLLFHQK

Data request, read-out Ki, for "C(=C1c2ccccc2CCc2ccccc21)c1ccccc1-c1cccnc1"
< 1000 nM

Report Ki for "O=c1[nH]c2ccc(/C=C3\c4ccccc4CCc4cc(C(F)F)ccc43)cc2[nH]1" please.
< 1000 nM

Would you kindly share the measured Ki for COc1ccc2c(c1)CCc1ccccc1C2=Cc1ccc(N)cc1 (mixture of isomers) ?
< 10000 nM

Name the recorded Ki for "COc1cccc2c1COc1ccccc1/C2=C/c1cccc(NS(C)(=O)=O)c1" .
< 500 nM

// lookup Ki for "CC/C(=C1\c2ccccc2CCc2cc(C)ccc21)c1cccc(NS(C)(=O)=O)c1"
< 500 nM

GET /values?readout=Ki&item= "Nc1cccc(C=C2c3ccccc3CCc3sccc32)c1"
< 10000 nM

Given the entry "CS(=O)(=O)Nc1cccc(/C=C2\c3ccccc3CSc3cc(Cl)ccc32)c1" , report its measured Ki.
< 500 nM

Field request: Ki | item: "C/C(=C1/c2ccc(Cl)cc2COc2ccccc21)c1cccc(NS(C)(=O)=O)c1"
< 500 nM

###

# measured on: UniProt P04150
# Sequence (P04150 1-777): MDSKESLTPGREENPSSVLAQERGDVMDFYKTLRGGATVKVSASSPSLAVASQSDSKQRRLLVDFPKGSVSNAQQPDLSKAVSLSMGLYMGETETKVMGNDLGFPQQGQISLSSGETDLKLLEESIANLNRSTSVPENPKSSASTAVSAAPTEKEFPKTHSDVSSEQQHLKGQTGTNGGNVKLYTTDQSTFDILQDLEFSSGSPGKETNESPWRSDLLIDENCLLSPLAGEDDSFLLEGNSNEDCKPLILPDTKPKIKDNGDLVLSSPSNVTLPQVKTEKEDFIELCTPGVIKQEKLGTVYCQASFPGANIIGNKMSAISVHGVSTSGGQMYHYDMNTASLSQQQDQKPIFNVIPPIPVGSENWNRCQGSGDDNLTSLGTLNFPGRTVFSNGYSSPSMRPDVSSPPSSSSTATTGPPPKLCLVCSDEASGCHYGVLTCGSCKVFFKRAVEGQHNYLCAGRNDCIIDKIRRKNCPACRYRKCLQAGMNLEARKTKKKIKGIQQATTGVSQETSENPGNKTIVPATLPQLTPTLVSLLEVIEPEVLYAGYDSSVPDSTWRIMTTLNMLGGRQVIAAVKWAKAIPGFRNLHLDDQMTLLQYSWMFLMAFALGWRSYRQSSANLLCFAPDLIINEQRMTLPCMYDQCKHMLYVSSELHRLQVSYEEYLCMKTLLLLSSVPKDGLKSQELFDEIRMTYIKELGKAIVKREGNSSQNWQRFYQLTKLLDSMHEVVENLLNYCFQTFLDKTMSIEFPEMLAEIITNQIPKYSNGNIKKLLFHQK
endpoint name: Ki

Need Ki, item "CS(=O)(=O)Nc1cccc(/C=C2\c3ccccc3CCc3ncccc32)c1"
< 500 nM

Value lookup for Ki; key = "N#Cc1ccc2c(c1)CCc1ccccc1/C2=C\c1cccc(O)c1"
< 500 nM

Suppose we examine the molecule "CS(=O)(=O)Nc1cc(F)cc(/C=C2/c3ccc(F)cc3CCc3nc(C(F)F)ccc32)c1" ; what Ki value has been reported?
< 500 nM

Quick check: Ki of "O=S(=O)(Nc1cccc(C=C2c3ccccc3CCc3ccccc32)c1)c1ccccc1" ?
< 500 nM

May I ask what Ki has been recorded for "Nc1n[nH]c2cc(C=C3c4ccc(F)cc4CCc4cc(F)ccc43)ccc12" ?
< 1000 nM

Record request: Ki value, item "COc1ccc2c(c1OC)CSc1ccccc1/C2=C/c1cccc(NS(C)(=O)=O)c1"
< 500 nM

Bench note: what Ki did "CC/C(=C1/c2ccccc2COc2cc(F)ccc21)c1cccc(NS(C)(=O)=O)c1" show?
< 500 nM

Fill in: Ki of "Oc1cccc(/C=C2/c3ccccc3CCc3cccc(Cl)c32)c1" is ___
< 10000 nM

Consider the molecule shown here: "FC(F)(F)c1ccccc1CC1c2ccccc2CCc2ccccc21" What is its recorded Ki?
< 10000 nM
